Tested on: OVCAR-4 ovarian
assayMethodText: NCI tumour cell line growth inhibition, 48 h; in the data active means GI50 below about 0.43 µM; inactive means the rest
Outcome codes: yes = active, no = inactive

>>> print(df.to_string())
                                   molecule  qualitativelabel
0  C/C1=C\C/C=C(\C)[C@H]2CC(CC/C(C)=C/CC1)[C@](C)(C=O)O2                no
1  O=C(Nc1ccccc1O)c1ccc(CNC(=O)c2sccc2Nc2ccnc(C(F)(F)F)c2)cc1                no
2     C(=C\c1nccc2c1[nH]c1ccccc12)/c1ccccc1                no
3  O=C(Nc1cccc(O)c1)c1cccc(NC2=C(Cl)C(=O)N(Cc3ccccc3)C2=O)c1                no
4  Cc1cc(C)cc(Nc2ccc([N+](=O)[O-])c(NCCN3CCOCC3)n2)c1               yes
5  C1=C(c2ccccc2)C(c2ccc(OCCN3CCCCC3)cc2)Oc2ccccc21 (configuration not stated)                no
6          N#C/C(N)=C(\C#N)N=Cc1csc2ccccc12                no

====

System: SK-MEL-5 melanoma
assayMethodText: NCI tumour cell line growth inhibition, 48 h
measureName: TGI

                                   compound  resultvalue
0      Cc1nc2ncn3c(c-2c1Cc1ccccc1)NC=C(O)N3     > 100 µM
1  COc1cc(NCC2COc3c(ccc(OC)c3OC)C2=O)c([N+](=O)[O-])cc1OC (stereo unspecified)     > 100 µM
2  CCCN1C(=O)CSC1=Nc1ccc2cc3ccc(N=C4SCC(=O)N4CCC)cc3nc2c1     > 100 µM
3                   COC(=O)CCc1cccnc1/C=N/O     > 100 µM
4       Cn1c2ccccc2n2c3ccccc3c(=O)c(C#N)c12      28.4 µM
5  CCCSc1ccc2[nH]c(N3C(=O)/C(=C/c4cc(OC)c(OC)c(OC)c4)N=C3c3ccccc3)cc2c1        19 µM

====

Tested on: MOLT-4 leukemia
assayMethodText: NCI tumour cell line growth inhibition, 48 h; in the data active = GI50 below about 0.43 µM; inactive = the rest
Outcomes: 1.0 for active, 0.0 for inactive

In [3]: df
Out[3]:
                                    molecule  qualitativelabel
 0  COC(=O)OCc1ccc2c(c1)C(=O)c1c-2n(CCCBr)c(=O)c2cc([N+](=O)[O-])ccc12               0.0
 1  O=C(NNS(=O)(=O)c1ccc(F)cc1)c1cccnc1Nc1ccc(Cl)cc1Cl               0.0
 2  O=C1c2ccn(CCCCN3CCCCC3)c2C(=O)c2c1c(O)c1ccccc1c2O               0.0
 3  Oc1c(I)cc(-c2nc3ccccc3s2)cc1CN(Cc1ccccn1)Cc1ccccn1               1.0
 4  CS(=O)(=O)CCn1c(=O)c(Oc2ccc(F)cc2F)cc2cnc(NC3CCOCC3)nc21               0.0
 5  COc1ccc(C(=O)COc2cccc(/C=C3\CSc4ccc(Cl)cc4C3=O)c2)cc1               0.0
 6  COc1cc(C2=NN(c3ccc(S(N)(=O)=O)cc3)C(c3ccc(Cl)cc3)C2)cc(OC)c1OC (centres undefined)               0.0
 7  Cc1ccc2c(c1)O/C(=C\c1ccc([N+](=O)[O-])o1)C2=O               0.0
 8  COc1ccc(-c2nnc(N3CCN(C(=O)CN4CCN(c5ccc(Cl)cc5)CC4)CC3)nc2-c2ccc(OC)cc2)cc1               0.0
 9  C/C1=C\C/C=C(\C)[C@H]2CC(CC/C(C)=C/CC1)[C@](C)(C=O)O2               0.0
10  c1cc[c]([Sn]([S]c2cccc3cccnc23)([S]c2cccc3cccnc23)[c]2ccccc2)cc1               1.0
11                  CCCCCCC#CC#Cc1cccc(=O)o1               0.0
12  CCCCCCCCCCCCCC(=O)C(C)N (centres undefined)               0.0
13          N#C/C(N)=C(\C#N)N=Cc1csc2ccccc12               0.0

====

Test system: 786-0 renal
assayMethodText: NCI tumour cell line growth inhibition, 48 h
measureName: TGI (µM)

                                   compound  unitssymbol  censoringoperator  resultvalue
0  COC(=O)C1(C2CC/C(C)=C/CC/C(C)=C/CC[C@@]3(C)O[C@@H]3C2)CC1 (stereo not given in full)           µM                  >           70
1  O=[N+]([O-])/C=C\c1c[nH]c2ccc(OCc3ccccc3)cc12           µM                  =         4.56
2  CC(C)(CC#N)c1cc(CC(C)(C)c2cc(CC(C)(C)c3cc(C(C)(C)C4(C)OCCO4)no3)no2)no1           µM                  =         43.1
3  COc1cccc(NC(=O)CC(=O)N2N=C(C)C(N=Nc3ccc(S(=O)(=O)CCOS(=O)(=O)O)cc3)C2=O)c1 (stereo not given)           µM                  =         9.07
4          CC1(C)CC(=O)C(=[N+]=[N-])C(=O)C1           µM                  >          100

====

System: HCT-116 colon
assayMethodText: NCI tumour cell line growth inhibition, 48 h
Known TGI of a selection of compounds
measureName: TGI (µM)

>>> df
                                   compound  unitssymbol  censoringoperator  resultvalue
0  CC(C)(C)[Si](C)(C)OCC1C=CC(n2cnc3c(N)ncnc32)O1 (stereo not given)           µM                  =         50.6
1           CN(/N=C\c1ccc2ccccc2c1)C1=NCCN1           µM                  =         31.8
2  CC(=O)C(=[N+]=[N-])C(=O)OCCOC(=O)C(=[N+]=[N-])C(C)=O           µM                  >            1
3  CCN(CC)Cc1cc(Nc2c3ccccc3nc3c4ccccc4n(C)c23)ccc1O           µM                  =         19.5
4  CCOC(=O)/C(C[C@H]1OC(C)(C)O[C@@H]1[C@H]1COC(C)(C)O1)=N/O           µM                  >          100
5  CC1(C)CCC[C@]2(C)[C@@H]1CC[C@@]13O[C@@H]1C1=C(CO)C(=O)OC1=C[C@@H]23           µM                  =         12.8
6  O=[N+]([O-])C(=C(Nc1ccccc1)Nc1ccccc1)/C(Cl)=C(\Cl)Br           µM                  =         20.1
7        O=C(O)Cn1c(=O)[nH]c(=O)c2[nH]cnc21           µM                  >          100
8        CC(/C=N\NC(=S)N(C)C)=N/NC(=S)N(C)C           µM                  =         31.4
9  Nc1ccc(Oc2ccc(C34CC5CC(C3)CC(c3ccc(Oc6ccc(N)cc6)cc3)(C5)C4)cc2)cc1           µM                  >         44.8

====

Test system: UO-31 renal
assayMethodText: NCI tumour cell line growth inhibition, 48 h
measureName: TGI

>>> df
                             moleculesmiles   testsystem  measurename  resultvalue
0  COc1ccc(Cl)cc1NC(=O)c1cccc([N+](=O)[O-])c1O  UO-31 renal          TGI      39.8 µM
1   Cc1cc(=O)[nH]c(/N=C(\N)Nc2ccc(Cl)cc2)n1  UO-31 renal          TGI     > 100 µM
2  CN1CCN(c2ccc(NC3=C(Cl)C(=O)c4ncccc4C3=O)cc2C#N)CC1  UO-31 renal          TGI      2.61 µM
3  CC1(C)CC(=O)c2c(nc(SSc3nc4c(c(-c5ccc(Br)cc5)c3C#N)C(=O)CC(C)(C)C4)c(C#N)c2-c2ccc(Br)cc2)C1  UO-31 renal          TGI      > 10 µM
4  CC(C)(C)OC(=O)CN1CCc2c(sc3ncnc(N/N=C/c4cccc5ccccc45)c23)C1  UO-31 renal          TGI      5.87 µM
